Data credit: patent US20170037028A1

- TARGET: GLUT1 (Homo sapiens)
- Sequence (P11166 whole entry, species assumed): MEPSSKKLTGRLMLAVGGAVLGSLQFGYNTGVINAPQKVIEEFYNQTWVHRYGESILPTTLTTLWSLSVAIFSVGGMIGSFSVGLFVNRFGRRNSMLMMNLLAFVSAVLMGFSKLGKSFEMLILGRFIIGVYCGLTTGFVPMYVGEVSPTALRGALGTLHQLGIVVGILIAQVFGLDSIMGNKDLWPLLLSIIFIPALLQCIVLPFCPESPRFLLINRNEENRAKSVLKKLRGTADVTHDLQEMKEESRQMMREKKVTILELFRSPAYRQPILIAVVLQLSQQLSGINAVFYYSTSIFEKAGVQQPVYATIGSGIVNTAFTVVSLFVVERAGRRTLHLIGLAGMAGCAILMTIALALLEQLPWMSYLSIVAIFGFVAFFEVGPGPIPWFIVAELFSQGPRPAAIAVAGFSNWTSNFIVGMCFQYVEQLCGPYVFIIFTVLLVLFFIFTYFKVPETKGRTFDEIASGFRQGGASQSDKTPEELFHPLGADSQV
- EXPERIMENT_NOTES: Indirect measurement of GLUT1 activity by quantification of intracellular ATP levels (glucose induced ATP increase)
- Type: cell-based
- Parameters: endogenous in cells; host or cells: DLD1 or CHO-K1
- RUN_PARAMETERS: read-out: IC50 regarding glucose induced ATP increase (GLUT1 inhibition)
pIC50: −log10 of the molar value.
OBSERVATION_TYPE: pIC50

[
  {
    "MOLECULE": "Cc1c(NC(=O)c2cc(C(F)(F)F)nc3ccc(Br)cc23)c(C(F)(F)F)nn1C(C)c1ccccc1 (racemic)",
    "TARGET": "GLUT1 (Homo sapiens)",
    "RELATION_SYMBOL": "=",
    "TEST_RESULT": 7.41
  },
  {
    "MOLECULE": "Cc1nn(CC(=O)Nc2cccc(F)c2)c(C)c1NC(=O)c1cc(C(N)=O)nc2ccccc12",
    "TARGET": "GLUT1 (Homo sapiens)",
    "RELATION_SYMBOL": "=",
    "TEST_RESULT": 6.78
  },
  {
    "MOLECULE": "Cc1c(NC(=O)c2cc(C(F)(F)F)nc3ccc(Br)cc23)c(C(F)(F)F)nn1Cc1ccc(F)cc1",
    "TARGET": "GLUT1 (Homo sapiens)",
    "RELATION_SYMBOL": "=",
    "TEST_RESULT": 7.69
  },
  {
    "MOLECULE": "Cc1nn(Cc2ccc(F)cc2)c(C)c1NC(=O)c1cc(C(F)(F)F)nc2cc(Br)ccc12",
    "TARGET": "GLUT1 (Homo sapiens)",
    "RELATION_SYMBOL": "=",
    "TEST_RESULT": 6.55
  },
  {
    "MOLECULE": "Cc1nn(Cc2ccc(F)c(F)c2)c(C)c1NC(=O)c1cc(C(F)(F)F)nc2cc(F)ccc12",
    "TARGET": "GLUT1 (Homo sapiens)",
    "RELATION_SYMBOL": "=",
    "TEST_RESULT": 7.32
  },
  {
    "MOLECULE": "Cc1cccnc1Cn1nc(C)c(NC(=O)c2cc(C(F)(F)F)nc3c(Cl)cc(Cl)cc23)c1C",
    "TARGET": "GLUT1 (Homo sapiens)",
    "RELATION_SYMBOL": "=",
    "TEST_RESULT": 6.60
  },
  {
    "MOLECULE": "Cc1nn(Cc2ccc(C#N)cc2F)c(C)c1NC(=O)c1cc(C(N)=O)nc2ccc(Br)cc12",
    "TARGET": "GLUT1 (Homo sapiens)",
    "RELATION_SYMBOL": "=",
    "TEST_RESULT": 8.17
  },
  {
    "MOLECULE": "Cc1nn(Cc2ccc(F)cc2F)c(C)c1NC(=O)c1cc(C(F)(F)F)nc2c(Cl)cc(Cl)cc12",
    "TARGET": "GLUT1 (Homo sapiens)",
    "RELATION_SYMBOL": "=",
    "TEST_RESULT": 7.35
  },
  {
    "MOLECULE": "COc1cc(C(=O)Nc2c(C)nn(Cc3ccccc3)c2C)c2ccccc2n1",
    "TARGET": "GLUT1 (Homo sapiens)",
    "RELATION_SYMBOL": "=",
    "TEST_RESULT": 6.88
  },
  {
    "MOLECULE": "Cc1nn(Cc2ccc(CC(=O)N(C)C)cc2)c(C)c1NC(=O)c1cc(C(F)(F)F)nc2ccc(Br)cc12",
    "TARGET": "GLUT1 (Homo sapiens)",
    "RELATION_SYMBOL": "=",
    "TEST_RESULT": 6.45
  },
  {
    "MOLECULE": "Cc1ccc(C#N)c(Cn2nc(C(F)(F)F)c(NC(=O)c3cc(C(N)=O)nc4cc(F)ccc34)c2C)c1",
    "TARGET": "GLUT1 (Homo sapiens)",
    "RELATION_SYMBOL": "=",
    "TEST_RESULT": 7.41
  },
  {
    "MOLECULE": "Cc1c(NC(=O)c2cc(C(N)=O)nc3ccccc23)c(C(F)(F)F)nn1Cc1ccc(F)cc1",
    "TARGET": "GLUT1 (Homo sapiens)",
    "RELATION_SYMBOL": "=",
    "TEST_RESULT": 8.34
  },
  {
    "MOLECULE": "CCc1noc(Cn2nc(C(F)(F)F)c(NC(=O)c3cc(C(N)=O)nc4ccccc34)c2C)n1",
    "TARGET": "GLUT1 (Homo sapiens)",
    "RELATION_SYMBOL": "=",
    "TEST_RESULT": 7.10
  },
  {
    "MOLECULE": "Cc1nn(Cc2ccc(CC#N)cc2)c(C)c1NC(=O)c1cc(C(N)=O)nc2ccccc12",
    "TARGET": "GLUT1 (Homo sapiens)",
    "RELATION_SYMBOL": "=",
    "TEST_RESULT": 9.10
  },
  {
    "MOLECULE": "Cc1cccc(CNC(=O)c2ccc(Cn3nc(C)c(NC(=O)c4cc(C(F)(F)F)nc5ccc(Br)cc45)c3C)cc2)c1",
    "TARGET": "GLUT1 (Homo sapiens)",
    "RELATION_SYMBOL": "=",
    "TEST_RESULT": 6.51
  },
  {
    "MOLECULE": "Cc1nn(CCOc2ccc(C#N)cc2)c(C)c1NC(=O)c1cc(C(N)=O)nc2cc(F)c(Cl)cc12",
    "TARGET": "GLUT1 (Homo sapiens)",
    "RELATION_SYMBOL": "=",
    "TEST_RESULT": 8.18
  },
  {
    "MOLECULE": "Cc1nn(Cc2ccc(O)cc2)c(C)c1NC(=O)c1cc(C(F)(F)F)nc2ccc(Br)cc12",
    "TARGET": "GLUT1 (Homo sapiens)",
    "RELATION_SYMBOL": "=",
    "TEST_RESULT": 7.57
  },
  {
    "MOLECULE": "Cc1ccc2nc(C)cc(C(=O)Nc3c(C(C)C)nn(Cc4ccc(F)cc4)c3C(C)C)c2c1",
    "TARGET": "GLUT1 (Homo sapiens)",
    "RELATION_SYMBOL": "<",
    "TEST_RESULT": 4.88
  },
  {
    "MOLECULE": "Cc1c(NC(=O)c2cc(C(N)=O)nc3ccc(Br)cc23)c(C(F)(F)F)nn1Cc1ccc(S(C)(=O)=O)cc1",
    "TARGET": "GLUT1 (Homo sapiens)",
    "RELATION_SYMBOL": "=",
    "TEST_RESULT": 8.72
  },
  {
    "MOLECULE": "COc1cc(C(=O)Nc2c(C)nn(Cc3ccccc3OC(F)(F)F)c2C)c2ccccc2n1",
    "TARGET": "GLUT1 (Homo sapiens)",
    "RELATION_SYMBOL": "=",
    "TEST_RESULT": 5.20
  },
  {
    "MOLECULE": "Cc1c(NC(=O)c2cc(C(N)=O)nc3cc(F)ccc23)c(C(F)(F)F)nn1Cc1nc2ccccc2o1",
    "TARGET": "GLUT1 (Homo sapiens)",
    "RELATION_SYMBOL": "=",
    "TEST_RESULT": 7.24
  },
  {
    "MOLECULE": "COc1cc(C(=O)Nc2c(C)nn(Cc3ccc(C)cc3)c2C)c2ccccc2n1",
    "TARGET": "GLUT1 (Homo sapiens)",
    "RELATION_SYMBOL": "=",
    "TEST_RESULT": 6.96
  },
  {
    "MOLECULE": "Cc1nn(Cc2ncccc2C#N)c(C)c1NC(=O)c1cc(C(N)=O)nc2cc(F)ccc12",
    "TARGET": "GLUT1 (Homo sapiens)",
    "RELATION_SYMBOL": "=",
    "TEST_RESULT": 7.95
  },
  {
    "MOLECULE": "COc1ccc(Cn2nc(C)c(NC(=O)c3cc(C(N)=O)nc4c(F)cc(Cl)cc34)c2C)cc1",
    "TARGET": "GLUT1 (Homo sapiens)",
    "RELATION_SYMBOL": "=",
    "TEST_RESULT": 8.89
  },
  {
    "MOLECULE": "Cc1c(NC(=O)c2cc(C(N)=O)nc3cc(F)c(Cl)cc23)c(C(F)(F)F)nn1Cc1ccncc1",
    "TARGET": "GLUT1 (Homo sapiens)",
    "RELATION_SYMBOL": "=",
    "TEST_RESULT": 7.53
  },
  {
    "MOLECULE": "CNC(=O)c1nc(Cn2nc(C(F)(F)F)c(NC(=O)c3cc(C(N)=O)nc4cc(F)ccc34)c2C)no1",
    "TARGET": "GLUT1 (Homo sapiens)",
    "RELATION_SYMBOL": "=",
    "TEST_RESULT": 7.14
  },
  {
    "MOLECULE": "Cc1c(NC(=O)c2cc(C(N)=O)nc3cccc(F)c23)c(C(F)(F)F)nn1Cc1ccc(C2CCC2)cc1",
    "TARGET": "GLUT1 (Homo sapiens)",
    "RELATION_SYMBOL": "=",
    "TEST_RESULT": 7.65
  },
  {
    "MOLECULE": "Cc1nn(Cc2ccc(C#N)cc2)c(C)c1NC(=O)c1cc(N(C)C)nc2ccccc12",
    "TARGET": "GLUT1 (Homo sapiens)",
    "RELATION_SYMBOL": "=",
    "TEST_RESULT": 7.42
  },
  {
    "MOLECULE": "Cc1ccc2nc(C)cc(C(=O)Nc3c(C)nn(Cc4cccc(C(F)(F)F)c4)c3C)c2c1",
    "TARGET": "GLUT1 (Homo sapiens)",
    "RELATION_SYMBOL": "=",
    "TEST_RESULT": 4.95
  },
  {
    "MOLECULE": "Cc1nonc1Cn1nc(C)c(NC(=O)c2cc(C(F)(F)F)nc3ccc(Br)cc23)c1C",
    "TARGET": "GLUT1 (Homo sapiens)",
    "RELATION_SYMBOL": "=",
    "TEST_RESULT": 6.13
  }
]
